The next entries give measured pIC50 for Cyclin-dependent kinase 5 (Homo sapiens).
Give bare numbers, as −log10 of the molar value.

>>> meas_value("N#Cc1ccc(Nc2nccc(C(=O)Nc3cnccc3-c3ccc(F)cc3)n2)cc1")
5.89

Request: For the molecule "O=C(Nc1cnccc1-c1ccc(F)cc1)c1ccnc(Nc2ccc(F)cc2)n1" , report pIC50.
Result: 6.17

###

- Assay Procedure: Drug uptake in brain of LaFerla 3x transgenic Alzheimer's disease C57BL/6 mouse model at 10 mg/kg, po measured after 5 hrs
- Format: ADME, organism-based
- Protocol Conditions: read-out: Drug uptake
Readout Label: concentration at 5 h (nM)
Numbers only, in nM.

>>> meas_value("N#Cc1ccc(Nc2nccc(C(=O)Nc3cnccc3-c3ccc(F)cc3)n2)cc1")
370

Request: For the compound "O=C(Nc1cnccc1-c1ccc(F)cc1)c1ccnc(Nc2ccc(F)cc2)n1" , report concentration at 5 h.
Result: 180

###

- Assay Procedure: Protein binding in mouse brain assessed as unbound fraction at 1 uM incubated for 4 hrs by LC-MS analysis
- Type: ADME, tissue-based
Readout Label: fraction unbound at 4 h, 1 µM

>>> meas_value("N#Cc1ccc(Nc2nccc(C(=O)Nc3cnccc3-c3ccc(F)cc3)n2)cc1")
0.012

Here's the next entry for you.
Request: For the molecule "O=C(Nc1cnccc1-c1ccc(F)cc1)c1ccnc(Nc2ccc(F)cc2)n1" , report fraction unbound at 4 h, 1 µM.
Result: 0.003

###

- Assay Procedure: Volume of distribution at steady state in C57BL/6 mouse at 2 mg/kg, iv by LC-MS/MS analysis
- Type: ADME, organism-based
- Protocol Conditions: in vivo, read-out: Vdss
Readout Label: Vd (L/kg)
One number for each entry, in L/kg.

>>> meas_value("O=C(Nc1cnccc1-c1ccc(F)cc1)c1ccnc(Nc2ccc(Cl)cc2)n1")
3.3

Parameter requested: Vd. Apply to each item below.
1. O=C(Nc1cnccc1-c1ccc(F)cc1)c1ccnc(Nc2ccc(F)cc2)n1
2. N#Cc1ccc(Nc2nccc(C(=O)Nc3cnccc3-c3ccc(F)cc3)n2)cc1

Result:
2.6
5.4

###

I'd appreciate it if you could supply fraction unbound at 5 h, 10 µM values for the items below.
- Assay Procedure: Protein binding in human plasma assessed as unbound fraction at 10 uM incubated for 5 hrs by equilibrium dialysis method
- Type: ADME, cell-free
Numbers only.

Some compounds with known fraction unbound at 5 h, 10 µM results, for comparison:
>>> meas_value("N#Cc1ccc(Nc2nccc(C(=O)Nc3cnccc3-c3ccc(F)cc3)n2)cc1")
0.011
>>> meas_value("O=C(Nc1cnccc1-c1ccc(F)cc1)c1ccnc(Nc2ccc(OC(F)F)cc2)n1")
0.003
>>> meas_value("O=C(Nc1cnccc1-c1ccc(F)cc1)c1ccnc(Nc2ccc(Cl)cc2)n1")
0.002

Request: For the compound "O=C(Nc1cnccc1-c1ccc(F)cc1)c1ccnc(Nc2ccc(F)cc2)n1" , report fraction unbound at 5 h, 10 µM.
Result: 0.002

###

- Target Under Test: UniProt:Q2M2I8
- Sequence (Q2M2I8 whole entry): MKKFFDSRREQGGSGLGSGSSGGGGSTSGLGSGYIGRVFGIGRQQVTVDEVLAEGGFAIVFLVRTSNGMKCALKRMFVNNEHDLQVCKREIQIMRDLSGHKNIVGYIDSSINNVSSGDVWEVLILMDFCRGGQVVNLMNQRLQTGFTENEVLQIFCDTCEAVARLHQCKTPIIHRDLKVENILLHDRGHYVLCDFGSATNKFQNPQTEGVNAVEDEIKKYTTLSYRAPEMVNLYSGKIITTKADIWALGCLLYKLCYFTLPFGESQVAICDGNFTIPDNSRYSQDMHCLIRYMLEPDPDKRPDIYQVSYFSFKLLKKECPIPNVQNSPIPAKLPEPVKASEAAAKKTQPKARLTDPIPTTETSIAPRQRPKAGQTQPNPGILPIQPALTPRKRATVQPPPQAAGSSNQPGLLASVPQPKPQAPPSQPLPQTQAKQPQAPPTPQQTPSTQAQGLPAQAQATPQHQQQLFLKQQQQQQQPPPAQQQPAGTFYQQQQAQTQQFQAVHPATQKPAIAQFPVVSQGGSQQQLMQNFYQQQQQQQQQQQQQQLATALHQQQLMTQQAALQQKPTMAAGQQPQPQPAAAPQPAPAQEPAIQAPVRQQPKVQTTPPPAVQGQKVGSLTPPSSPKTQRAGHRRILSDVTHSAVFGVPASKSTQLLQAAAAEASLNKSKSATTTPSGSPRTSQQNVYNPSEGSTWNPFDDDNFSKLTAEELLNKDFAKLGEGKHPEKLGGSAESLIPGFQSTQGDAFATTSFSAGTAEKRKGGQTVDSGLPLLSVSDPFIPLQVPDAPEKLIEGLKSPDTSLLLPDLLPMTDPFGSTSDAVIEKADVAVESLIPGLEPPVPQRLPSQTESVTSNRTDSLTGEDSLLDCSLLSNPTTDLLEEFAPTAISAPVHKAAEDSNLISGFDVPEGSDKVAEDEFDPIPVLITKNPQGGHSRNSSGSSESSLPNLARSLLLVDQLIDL
pIC50: −log10 of the molar value.
Readout Label: pIC50

>>> meas_value("N#Cc1ccc(Nc2nccc(C(=O)Nc3cnccc3-c3ccc(F)cc3)n2)cc1")
"< 5.70"

Here's the next entry for you.
Request: For the compound "O=C(Nc1cnccc1-c1ccc(F)cc1)c1ccnc(Nc2ccc(F)cc2)n1" , report pIC50.
Result: < 5.70

###

- Assay Procedure: Permeability of the compound at 100 uM incubated for 4 hrs at pH 7.4 by PAMPA assay
- Assay type: ADME
- Protocol Conditions: read-out: permeability
Lab note: cut-off is 80 ×10⁻⁶ cm/s. Strictly less in Papp at 4 h, 100 µM is rule met. Exactly 80 ×10⁻⁶ cm/s or more is rule not met.

Would you please look over these solved cases?
>>> category("O=C(Nc1cnccc1-c1ccc(F)cc1)c1ccnc(Nc2ccc(Cl)cc2)n1")
"rule met"
>>> category("N#Cc1ccc(Nc2nccc(C(=O)Nc3cnccc3-c3ccc(F)cc3)n2)cc1")
"rule not met"
>>> category("O=C(Nc1cnccc1-c1ccc(F)cc1)c1ccnc(Nc2ccc(F)cc2)n1")
"rule met"
>>> category("O=C(Nc1cnccc1-c1ccc(F)cc1)c1ccnc(Nc2ccc(OC(F)F)cc2)n1")
"rule not met"

# ---- query compound ----
Request: Just wondering, is Papp at 4 h, 100 µM of "O=C(Nc1cnccc1-c1ccccc1)c1ccnc(Nc2ccc(Cl)cc2)n1" below 80 ×10⁻⁶ cm/s?
Result: rule not met

###

The next entries give measured IC50 for Aurora kinase B (Homo sapiens, UniProt Q96GD4).
Answers are plain numbers, in µM.

>>> meas_value("O=C(Nc1cnccc1-c1ccc(F)cc1)c1ccnc(Nc2ccc(F)cc2)n1")
11

Here's the next entry for you.
Request: For the compound "N#Cc1ccc(Nc2nccc(C(=O)Nc3cnccc3-c3ccc(F)cc3)n2)cc1" , report IC50.
Result: 11

###

- Assay Procedure: Metabolic stability in human liver microsomes assessed as parent compound remaining at 0.5 uM measured after 10 mins in presence of NADPH by LC-MS/MS analysis
- Format: ADME, Microsome
- Protocol Conditions: read-out: Stability
I'd appreciate it if you could supply remaining at 10 min, 0.5 µM values for the items below.

Some compounds with known remaining at 10 min, 0.5 µM results, for comparison:
>>> meas_value("O=C(Nc1cnccc1OCC(F)(F)F)c1ccnc(Nc2ccccc2)n1")
"59%"
>>> meas_value("N#Cc1ccc(Nc2nccc(C(=O)Nc3cnccc3-c3ccc(F)cc3)n2)cc1")
"79%"
>>> meas_value("O=C(Nc1cnccc1-c1ccc(F)cc1)c1ccnc(Nc2ccc(Cl)cc2)n1")
"80%"
>>> meas_value("O=C(Nc1cnccc1-c1ccccc1)c1ccnc(Nc2cccnc2)n1")
"52%"
>>> meas_value("N#Cc1ccc(Nc2nccc(C(=O)Nc3cnccc3-c3ccccc3)n2)cc1")
"70%"
>>> meas_value("CS(=O)(=O)c1ccc(Nc2nccc(C(=O)Nc3cnccc3-c3ccccc3)n2)cc1")
"84%"

Parameter requested: remaining at 10 min, 0.5 µM. Apply to each item below.
1. N#Cc1ccc(Nc2nccc(C(=O)Nc3cnccc3OCC(F)(F)F)n2)cc1
2. O=C(Nc1cnccc1-c1ccccc1)c1ccnc(Nc2ccccc2)n1
3. O=C(Nc1cnccc1-c1ccc(F)cc1)c1ccnc(Nc2ccc(C(F)(F)F)cc2)n1
4. O=C(Nc1cnccc1OCC(F)(F)F)c1ccnc(Nc2ccc(C(F)(F)F)cc2)n1

Result:
87%
52%
100%
82%

###

- Target Under Test: Glycogen synthase kinase-3 (Homo sapiens, UniProt P49840+P49841)
- Assay Procedure: Inhibition of GSK-3 in human U2OS cells transfected with beta-catenin GFP and 4R1N tau plasmid assessed as inhibition of Tau phosphorylation at Ser396 residues by high-content imaging assay
- Type: cell-based
I'd appreciate it if you could supply log10 of IC50 values for the items below.
Remember, log10 of IC50, in nM.

>>> meas_value("O=C(Nc1cnccc1-c1ccc(F)cc1)c1ccnc(Nc2ccc(C(F)(F)F)cc2)n1")
2.00

Parameter requested: log10 of IC50. Apply to each item below.
1. N#Cc1ccc(Nc2nccc(C(=O)Nc3cnccc3-c3ccc(F)cc3)n2)cc1
2. Cc1ccc(Nc2nccc(C(=O)Nc3cnccc3-c3ccccc3)n2)cc1
3. N#Cc1ccc(Nc2nccc(C(=O)Nc3cnccc3-c3ccccc3)n2)cc1Cl
4. O=C(Nc1cnccc1OCC(F)(F)F)c1ccnc(Nc2ccc(C(F)(F)F)cc2)c1

Result:
1: 1.00; 2: 1.85; 3: 1.30; 4: 2.91

Parameter requested: log10 of IC50. Apply to each item below.
1. O=C(Nc1cnccc1-c1ccc(F)cc1)c1ccnc(Nc2ccc(Cl)cc2)n1
2. COc1ccc(Nc2nccc(C(=O)Nc3cnccc3-c3ccccc3)n2)cc1F

Result:
1. 1.89
2. 1.23

Parameter requested: log10 of IC50. Apply to each item below.
1. N#Cc1ccc(Nc2nccc(C(=O)Nc3cnccc3-c3ccccc3)n2)c(Cl)c1
2. O=C(Nc1cnccc1-c1ccccc1)c1ccnc(Nc2cccnc2)n1
3. O=C(Nc1cnccc1-c1ccccc1)c1ccnc(Nc2c(F)cc(Cl)cc2F)n1
4. O=C(Nc1cnccc1-c1ccccc1)c1ccnc(Nc2ccc(C(F)(F)F)cn2)c1

Result:
[2.67, 1.66, 2.54, 1.69]

###

- Target Under Test: UniProt P08069
- Sequence (P08069 31-736 limits assumed): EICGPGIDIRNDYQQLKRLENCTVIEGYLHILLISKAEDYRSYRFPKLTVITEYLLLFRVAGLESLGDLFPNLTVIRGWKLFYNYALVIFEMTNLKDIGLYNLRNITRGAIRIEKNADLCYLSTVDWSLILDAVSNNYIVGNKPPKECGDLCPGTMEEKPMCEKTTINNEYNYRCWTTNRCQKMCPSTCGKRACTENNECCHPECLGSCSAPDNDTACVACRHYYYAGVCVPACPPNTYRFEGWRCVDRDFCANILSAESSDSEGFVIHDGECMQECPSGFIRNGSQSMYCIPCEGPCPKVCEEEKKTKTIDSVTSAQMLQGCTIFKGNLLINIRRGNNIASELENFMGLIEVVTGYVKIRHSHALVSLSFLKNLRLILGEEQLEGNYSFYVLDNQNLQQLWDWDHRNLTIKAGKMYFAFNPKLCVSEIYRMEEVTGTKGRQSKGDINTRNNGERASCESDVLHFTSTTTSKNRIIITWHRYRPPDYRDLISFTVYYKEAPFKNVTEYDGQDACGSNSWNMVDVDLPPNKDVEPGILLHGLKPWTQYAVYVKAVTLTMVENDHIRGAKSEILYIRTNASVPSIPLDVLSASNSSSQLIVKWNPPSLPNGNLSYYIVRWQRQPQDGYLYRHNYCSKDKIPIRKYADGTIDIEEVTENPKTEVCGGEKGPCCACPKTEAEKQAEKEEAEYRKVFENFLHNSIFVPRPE
- Sequence (P08069 741-1367 limits assumed): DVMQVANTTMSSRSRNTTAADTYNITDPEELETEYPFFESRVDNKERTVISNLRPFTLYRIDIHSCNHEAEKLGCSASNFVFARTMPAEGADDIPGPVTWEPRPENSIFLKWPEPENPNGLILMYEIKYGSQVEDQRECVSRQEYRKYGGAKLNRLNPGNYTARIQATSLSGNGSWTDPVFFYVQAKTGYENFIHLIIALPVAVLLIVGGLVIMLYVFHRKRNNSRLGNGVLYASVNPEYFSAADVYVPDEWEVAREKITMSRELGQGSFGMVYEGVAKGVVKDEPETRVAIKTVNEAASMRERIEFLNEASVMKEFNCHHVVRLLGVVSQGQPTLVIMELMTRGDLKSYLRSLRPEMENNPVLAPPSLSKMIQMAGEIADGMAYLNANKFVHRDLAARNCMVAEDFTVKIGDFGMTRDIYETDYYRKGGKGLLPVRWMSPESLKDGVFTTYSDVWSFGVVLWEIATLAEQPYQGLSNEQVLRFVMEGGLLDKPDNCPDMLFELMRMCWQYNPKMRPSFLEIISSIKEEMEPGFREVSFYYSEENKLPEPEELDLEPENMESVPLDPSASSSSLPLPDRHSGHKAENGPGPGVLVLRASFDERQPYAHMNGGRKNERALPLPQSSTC
Readout Label: IC50 (µM)
Answers are plain numbers, in µM.

Request: For the compound "N#Cc1ccc(Nc2nccc(C(=O)Nc3cnccc3-c3ccc(F)cc3)n2)cc1" , report IC50.
Result: 17

###

- Target Under Test: Aurora kinase A (Mus musculus)
- Sequence (P97477 whole entry): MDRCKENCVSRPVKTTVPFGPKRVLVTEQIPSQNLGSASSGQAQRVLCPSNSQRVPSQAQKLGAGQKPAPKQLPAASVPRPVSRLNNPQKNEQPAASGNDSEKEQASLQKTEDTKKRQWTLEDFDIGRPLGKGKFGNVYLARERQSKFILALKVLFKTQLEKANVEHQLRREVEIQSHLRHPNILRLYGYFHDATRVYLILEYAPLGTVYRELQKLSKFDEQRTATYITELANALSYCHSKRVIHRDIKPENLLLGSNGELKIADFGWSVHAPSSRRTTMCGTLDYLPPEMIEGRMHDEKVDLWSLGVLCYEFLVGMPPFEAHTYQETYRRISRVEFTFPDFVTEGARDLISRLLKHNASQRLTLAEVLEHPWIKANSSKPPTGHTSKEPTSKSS
Readout Label: IC50 (µM)
Numbers only, in µM.

Request: For the compound "N#Cc1ccc(Nc2nccc(C(=O)Nc3cnccc3-c3ccc(F)cc3)n2)cc1" , report IC50.
Result: 17
